src = the supplement of paper PMC10567573

- RUN DESCRIPTION: protein stability index of a GFP-peptide fusion (GPS, HEK-293T) (PSI 1-6); higher = more stable;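 note: 24-mer peptide tiles fused after GFP, lentivirally expressed, FACS-sorted into six equal bins by GFP/DsRed ratio, decoded by Illumina sequencing, PSI is the read-weighted mean bin number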
- TEST CONDITIONS: treatment: DMSO; c terminus: a fixed tail appended
Each entry below carries its reported protein stability index.
Answer as a number with no unit attached.

INSERT INTO measurements (macromolecule_sequence, measured_value) VALUES
  ('DKPGTTQIVQLTQQVDTNISVILP [DENND6A]', 3.48),
  ('KKFQSEKAAGSVSKSTQFEYAWCL [FIS1]', 2.12);

Kindly consider the entry below.
Quick one: protein stability index of NGSISSAGNSSRNSSQSSSDGSCK [BTBD10] ?
5.01

====

- RUN DESCRIPTION: protein stability index of a GFP-peptide fusion (GPS, HEK-293T) (PSI 1-6); higher = more stable
- TEST CONDITIONS: treatment: MLN4924 1 uM, 8 h; c terminus: a fixed tail appended
Answer no if protein stability index is under 4, and yes if it is 4 or more.

INSERT INTO assay_data (macromolecule_sequence, class_assignment) VALUES
  ('KKKKKQKNKKSSTGEASENGLEDI [TCF25]', 'yes'),
  ('EPDLRHLVLVVNTLRRIQASMAPA [SERTAD1]', 'no'),
  ('TSQEIFRQRFRHLRYQETPGPREA [ZNF232]', 'no'),
  ('GWFWVCPGGGDICMYRHALPPGFV [ZC3H15]', 'no'),
  ('GKWPQVLFFPEGTCSNKKALLKFK [LPCAT4]', 'no');

Reported protein stability index at or above 4? KNYFQHREFSFTLKDDIYIRYQSF [PRIM1]
no

Reported protein stability index at or above 4? ILKLEQENCTLVTTFRGHTGGVTA [WDFY2]
no

Reported protein stability index at or above 4? QYQLLRCNVDLLKIIQLGLTFMNE [CNOT7]
no

Reported protein stability index at or above 4? PETVRMVLSNMEKLFCIPVHGIRS [IMPA1]
no

====

- RUN DESCRIPTION: protein stability index of a GFP-peptide fusion (GPS, HEK-293T) (PSI 1-6); higher = more stable
- TEST CONDITIONS: treatment: DMSO; c terminus: a fixed tail appended
Each entry below carries its reported protein stability index.
Answer as a number with no unit attached.

Examples with answers:
INSERT INTO results (macromolecule_sequence, measured_value) VALUES
  ('DGLVGMAIVGGMALGVAGLAGLIG [FIS1]', 2.33),
  ('KKKKKQKNKKSSTGEASENGLEDI [TCF25]', 5.04),
  ('QSLVSILRTTVHHAFPVVTENRGN [CLCN6]', 2.69),
  ('ASVDYIRKLQKEQQRSKDLESRQR [TFE3]', 4.06),
  ('GSGFGGGYGGGLGAGFGGGLGAGF [KRT16]', 2.27);

Quick one: protein stability index of YDAYRTDLEELSLGPRDAGTRGRL [ARFIP2] ?
4.1

Quick one: protein stability index of IWDINNQICTVKDIKAEPQPLSPA [ATF6] ?
3.96

Quick one: protein stability index of LVTQQLPHLMPSNCGLEEKIANLG [S100A14] ?
2.43

Quick one: protein stability index of SSFSRPLGYPYVNSVSSHASSPYI [DLX1] ?
2.62

Quick one: protein stability index of VEKQGDTIEYLKRHNALLSKRLLA [TMEM192] ?
2.87

Quick one: protein stability index of AREGAGLVVASGVIYCLGGYDGLN [KLHL12] ?
2.81

Quick one: protein stability index of CWLPLLAGLLPPVPAQKFSALTFL [SMOC2] ?
3.54

Quick one: protein stability index of IEFNPRIGKWFDFKLFFNGRPGIV [DHCR7] ?
2.63

Quick one: protein stability index of ESAGPSRAVRQSVTSFPDADAFHH [EMD] ?
4.33

Quick one: protein stability index of QLYMEQFTKANFWYQPSFHGVDLS [CARM1] ?
2.42

Quick one: protein stability index of TPLHRDKTPLHQKHAAFVTPDQKY [MYBL2] ?
4.11
